Tested on: NCI-H23 lung
Method: NCI-60 one-dose screen, 48 h
Condition Description: 10 µM unless noted
About 83,000 compounds went through this panel and 20% of them were active in at least one assay; those are over-represented in the sample as a whole. Active and inactive are the calls of the source. The calls were made as follows: active = growth percent below 10; inactive = the rest.
Give your call using only these classes: active, inactive

A selection of reference data follows.
>>> class_assignment("NC(=O)c1ncn(C2OC(CO)C(O)C2O)n1 (centres undefined)")
"inactive"
>>> class_assignment("CS(=O)(=O)c1ccc(-c2cc3c(oc2=O)-c2ccccc2OC3O)cc1 (centres undefined)")
"inactive"
>>> class_assignment("O=S(=O)(c1ccc(N/N=C\\c2ccccc2)cc1)c1ccc(N/N=C/c2ccccc2)cc1")
"inactive"
>>> class_assignment("C=C1C(=O)O[C@H]2[C@H]1CC/C(COC(=O)CCCCCC(=O)OC/C1=C/CC[C@@]3(C)O[C@H]3[C@H]3OC(=O)C(=C)[C@@H]3CC1)=C\\CC[C@@]1(C)O[C@@H]21")
"active"
>>> class_assignment("CC1CCN(C(=O)OCc2nc3nc(Cl)nc(N4CCOCC4)c3[nH]2)CC1")
"active"

Task: Called result for `Cc1c2c(cc[n+]1Cc1ccc(F)cc1)c1ccc(OCc3cccc(F)c3)cc1n2Cc1cccc(F)c1`
Result: active

Task: And then COc1ccc(C2CC(c3cccc(Nc4ccncc4)c3)=NN2c2cc(Cl)cc(Cl)c2)cc1 (centres undefined) , what is it?
Result: inactive

Task: And then `NC(=S)N/N=C(/c1ccccc1)c1ccccc1N` , what is it?
Result: inactive

Task: And then `COc1ccc(C(=O)/C=C/c2c(OC)cc(OC)cc2OC)c(OC)c1` , what is it?
Result: inactive

Task: And then `COc1ccc(C(=O)c2cc3c(N)c(C(=O)Nc4ccc(Br)cc4)sc3nc2C)cc1` , what is it?
Result: inactive

Task: And then `C=Cc1cc[n+](CCCCCCCCCCCC)cc1` , what is it?
Result: inactive

Task: And then `CN1C2CCC1CN(c1cnc(C(=O)Nc3cc(F)cc4cccnc34)cn1)C2` , what is it?
Result: inactive

Task: And then `O=C(O)CCCCCCCCCCCCCCC(=O)O` , what is it?
Result: inactive

Task: And then `Cc1cc2nc(-c3ccccc3)c(-c3ccccc3)nc2cc1C` , what is it?
Result: inactive
